# System: SF-539 CNS
# procedureSummary: NCI tumour cell line growth inhibition, 48 h
measurementLabel: TGI (µM)
The response must be a number in µM with no trailing unit.

Would you kindly share the measured TGI for COc1ccc(-c2ccc(-c3ccc(C(=N)N)cn3)o2)cc1Cl ?
3.14

Would you kindly share the measured TGI for COc1ccc2c(c1)CCN1CCCc3ccccc3C21 (centres undefined) ?
34.7

Would you kindly share the measured TGI for C=C1C(OC/C=C/COC2O[C@@H]3O[C@@]4(C)CC[C@H]5[C@H](C)CC[C@@H](C2=C)[C@@]35OO4)O[C@@H]2O[C@@]3(C)CC[C@H]4[C@H](C)CC[C@@H]1[C@@]24OO3 (some centres undefined) ?
25.2

Would you kindly share the measured TGI for COC1=C2C=[N+](C)C3C(=C2C=CC1OC)Cc1cc2c(cc13)OCO2 (centres undefined) ?
24

Would you kindly share the measured TGI for CCN(CC)c1ccc(N=C2C=C(Cl)C(=O)c3ncccc32)c(C)c1 ?
28

Would you kindly share the measured TGI for Cc1cc(N(CCCNc2ccnc3cc(Cl)ccc23)Cc2ccc3c(c2)OCO3)nc(N2CCCCC2)n1 ?
3.36

Would you kindly share the measured TGI for NCCCN1CCN(CCCNc2nc3ccccc3c3[nH]c4ccccc4c23)CC1 ?
1.5

Would you kindly share the measured TGI for COc1c(Cl)ccc2c(-c3nc4cc(Cl)c(F)cc4s3)cc(=O)oc12 ?
3.36

Would you kindly share the measured TGI for Cc1ccc2nc(-c3ccc(N)c4ccccc34)[nH]c2c1 ?
1.64

Would you kindly share the measured TGI for CC12CCC(C(=Nc3cc(C(F)(F)F)cc(C(F)(F)F)c3)C1=O)C2(C)C (centres undefined) ?
44.9

Would you kindly share the measured TGI for O=c1oc2c3ccc4cnccc4c3[nH]c2c2ccccc12 ?
25.2

Would you kindly share the measured TGI for Cc1c(O)c(OC2OC(CO)C(O)C(O)C2O)cc2c1C=C[C@@H]1[C@@]2(C)C(=O)C[C@]2(C)[C@@H]([C@@](C)(O)C(=O)CCC(C)(C)O)[C@H](O)C[C@@]12C (some centres undefined) ?
43.9

Would you kindly share the measured TGI for Cc1ccc2c(C(=O)c3c(C)n(CCN4CCOCC4)c4ccccc34)cccc2c1 ?
12.8

Would you kindly share the measured TGI for COc1ccc(-c2cc(-c3cccc(NS(C)(=O)=O)c3)nc(N)c2C#N)cc1 ?
0.491

Would you kindly share the measured TGI for COc1ccc2c(CCNC(=O)/C=C/c3ccccc3)c(C(C)=O)[nH]c2c1[N+](=O)[O-] ?
61

Would you kindly share the measured TGI for Cc1c2ccccc2c(C)n2c1nc1ccccc12 ?
18.6

Would you kindly share the measured TGI for CC(=O)OC1CCC2C(=CCC3C2(C)C(=O)CC2(C)C(C4(C)OC(C(C)C)=CC4=O)C(O)CC32C)C1(C)C (centres undefined) ?
33.2

====

Please respond with reported TGI for every item in the list.
# Tested on: K-562 leukemia
# procedureSummary: NCI tumour cell line growth inhibition, 48 h

Would you kindly share the measured TGI for CCOC(=O)c1[nH]c2cccc3c2c1CC[C@H](NC(=O)C(F)(F)F)C3=O ?
> 100 µM

Would you kindly share the measured TGI for COC12CCC(C(C(=O)c3ccccc3)=C1C(=O)c1ccccc1)C(O)C2 (centres undefined) ?
> 100 µM

Would you kindly share the measured TGI for O=C1/C(=C/c2ccccc2)NC(=S)N1CN1CCCCC1 ?
> 100 µM

Would you kindly share the measured TGI for COc1ccc(-c2ccc(-c3ccc(C(=N)N)cn3)o2)cc1Cl ?
7.5 µM

Would you kindly share the measured TGI for COc1cccc(C2SC(C)C(=O)N2CCc2cccs2)c1 (centres undefined) ?
> 100 µM

Would you kindly share the measured TGI for C[C@@H](COCCC(=O)N1CCN(c2ncc(C(F)(F)F)cn2)CC1)Nc1cn[nH]c(=O)c1C(F)(F)F ?
> 100 µM

Would you kindly share the measured TGI for CCCc1nnc2sc(COc3cc(Cl)c(OCc4nn5c(CCC)nnc5s4)cc3Cl)nn12 ?
> 100 µM

Would you kindly share the measured TGI for OCC(CCc1c[nH]c2ccccc12)c1c[nH]c2ccccc12 (centres undefined) ?
67.6 µM

Would you kindly share the measured TGI for CC(=O)OC(C)(C)CCC(=O)[C@](C)(O)[C@H]1[C@H](O)C[C@@]2(C)[C@@H]3CC=C4C(C)=C(OC5OC(CO)C(O)C(O)C5O)C(=O)C[C@@H]4[C@]3(C)C(=O)C[C@]12C (some centres undefined) ?
> 100 µM

Source of measurements: PubChem BioAssay (NCI)
